CD3-NFAT Activity by CD3 mAb by entry:
target: human CD3 on cells (human PBMC; Jurkat TCR/CD3 NFAT reporter cells) (human, UniProt P07766 23-207; P04234 22-171; P09693 23-182); experiment: cell-based or functional assay
Sequence (P07766 23-207, chain 1 of 3): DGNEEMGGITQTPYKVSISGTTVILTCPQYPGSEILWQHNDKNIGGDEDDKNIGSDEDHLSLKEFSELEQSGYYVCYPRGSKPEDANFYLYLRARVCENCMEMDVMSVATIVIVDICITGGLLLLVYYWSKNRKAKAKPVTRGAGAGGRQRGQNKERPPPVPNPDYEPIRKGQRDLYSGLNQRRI
Sequence (P04234 22-171, chain 2 of 3): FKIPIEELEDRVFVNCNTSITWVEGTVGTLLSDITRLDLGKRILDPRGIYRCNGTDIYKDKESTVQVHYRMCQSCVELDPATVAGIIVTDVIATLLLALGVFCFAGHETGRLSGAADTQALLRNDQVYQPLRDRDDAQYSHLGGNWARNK
Sequence (P09693 23-182, chain 3 of 3): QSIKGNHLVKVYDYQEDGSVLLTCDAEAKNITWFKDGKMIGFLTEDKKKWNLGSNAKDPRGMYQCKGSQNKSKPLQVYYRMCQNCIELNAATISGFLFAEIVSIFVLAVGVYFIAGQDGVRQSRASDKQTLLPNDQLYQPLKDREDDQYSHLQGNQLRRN

# BINDER, CD3-NFAT Activity by CD3 mAb
data = [
    ("Hu155A9B1-12 (antibody, V domains shown, humanized mAb) VH: EVQLQESGPGLVKPSETLSLTCTVSGFSLTSYNVHWVRQPPGKGLEWMGRVRYNGDTSYNSALKSRLTISRDTSKNQASLKLSSVTAADTAVYYCTRGPYGGSSEPLFDYWGQGTMVTVSS VL: DIQMTQSPSSLSASVGDRVTITCKASQNINKYLNWFQQKPGKAPRLLIYTTNNLQTGIPSRFSGSGSGTDFTLTISSLQPEDFATYYCLQHNSGYTFGQGTKLEIK", "> 50 % SP34"),
    ("Hu155A9B1-14 (antibody, V domains shown, humanized mAb) VH: EVQLQESGPGLVKPSETLSLTCTVSGGSISSYNVHWVRQPPGKGLEWIGRVRYNGDTSYNSALKSRVTISRDTSKNQFSLKLSSVTAADTAVYYCARGPYGGSSEPLFDYWGQGTMVTVSS VL: DIQMTQSPSSLSASVGDRVTITCKASQNINKYLNWFQQKPGKAPRLLIYTTNNLQTGIPSRFSGSGSGTDFTLTISSLQPEDFATYFCLQHNSGYTFGQGTKLEIK", "≤ 50 % SP34"),
]

Name the recorded CD3-NFAT Activity by CD3 mAb for Hu192A7B9-10 (antibody, V domains shown, humanized mAb) VH: EVQLQESGPGLVKPSETLSLTCTVSGGSISSYNVHWVRQPPGKGLEWMGRMRYNGDTSYNSALKSRLTISRDTSKNQFSLKLSSVTAADTAVYYCTRGPRGGYYSALFDYWGQGTMVTVSS VL: DIQMTQSPSSLSASVGDRVTITCKASQNINRYLNWYQQKPGKAPKLLISIANSLQTGVPSRFSGSGSGTDFTLTISSLQPEDFATYYCLQHNSWYTFGQGTKLEIK .
> 50 % SP34
